- System: HCC-15
- METHOD_NOTES: relative viability (nuclei count vs DMSO), 5 days (fraction); higher = more cells survive
- RUN_PARAMETERS: first compound 8 µM
RECORDED_METRIC: relative viability
Give bare numbers.

MOLECULE: CCCCCCCCCCCC1=C(O)C(=O)C=C(O)C1=O [Embelin] + Cc1nc(Nc2ncc(C(=O)Nc3c(C)cccc3Cl)s2)cc(N2CCN(CCO)CC2)n1 [Dasatinib] (partner 0.075 µM)
RESULT: 0.582
//
MOLECULE: CCCCCCCCCCCC1=C(O)C(=O)C=C(O)C1=O [Embelin] + CCNC(=O)c1noc(-c2cc(C(C)C)c(O)cc2O)c1-c1ccc(CN2CCOCC2)cc1 [Luminespib] (partner 0.01 µM)
RESULT: 0.302
//
MOLECULE: CCCCCCCCCCCC1=C(O)C(=O)C=C(O)C1=O [Embelin] + O=C(CCCCCCC(=O)Nc1ccccc1)NO [Vorinostat] (partner 1 µM)
RESULT: 0.841
//
MOLECULE: CCCCCCCCCCCC1=C(O)C(=O)C=C(O)C1=O [Embelin] + Cc1nc(NC(=O)N2CCC[C@H]2C(N)=O)sc1-c1ccnc(C(C)(C)C(F)(F)F)c1 [Alpelisib] (partner 2 µM)
RESULT: 0.995
//
MOLECULE: CCCCCCCCCCCC1=C(O)C(=O)C=C(O)C1=O [Embelin] + Nc1nc2[nH]cc(CCc3ccc(C(=O)N[C@@H](CCC(=O)O)C(=O)O)cc3)c2c(=O)[nH]1 [Pemetrexed] (partner 0.2 µM)
RESULT: 0.207

Fill in relative viability for each of the 2 molecules listed.
1. CCCCCCCCCCCC1=C(O)C(=O)C=C(O)C1=O [Embelin] + Cc1cc(Nc2cc(N3CCN(C)CC3)nc(Sc3ccc(NC(=O)C4CC4)cc3)n2)n[nH]1 [Tozasertib] (partner 0.1 µM)
2. CCCCCCCCCCCC1=C(O)C(=O)C=C(O)C1=O [Embelin] + COc1cc2c(Oc3ccc(NC(=O)C4(C(=O)Nc5ccc(F)cc5)CC4)cc3F)ccnc2cc1OCCCN1CCOCC1 [Foretinib] (partner 0.25 µM)

0.401
1.08

====

- Tested on: NCI-H1975
- METHOD_NOTES: relative viability (nuclei count vs DMSO), 5 days (fraction); higher = more cells survive
- RUN_PARAMETERS: first compound 0.08 µM
Exam item: assign YES to entries whose relative viability is below 0.6 and NO to entries at or above 0.6. Note that a value of exactly 0.6 receives NO.

Completed entries (count: 3):
COMPOUND: CCCCCCCCCCCC1=C(O)C(=O)C=C(O)C1=O [Embelin] + C[C@@H](Oc1cc(-c2cnn(C3CCNCC3)c2)cnc1N)c1c(Cl)ccc(F)c1Cl [Crizotinib] (partner 1 µM)
MEASUREMENT_TARGET: NCI-H1975
ASSIGNED_CATEGORY: NO
--
COMPOUND: CCCCCCCCCCCC1=C(O)C(=O)C=C(O)C1=O [Embelin] + CS(=O)(=O)CCNCc1ccc(-c2ccc3ncnc(Nc4ccc(OCc5cccc(F)c5)c(Cl)c4)c3c2)o1 [Lapatinib] (partner 2 µM)
MEASUREMENT_TARGET: NCI-H1975
ASSIGNED_CATEGORY: NO
--
COMPOUND: CCCCCCCCCCCC1=C(O)C(=O)C=C(O)C1=O [Embelin] + CCNC(=O)c1noc(-c2cc(C(C)C)c(O)cc2O)c1-c1ccc(CN2CCOCC2)cc1 [Luminespib] (partner 0.01 µM)
MEASUREMENT_TARGET: NCI-H1975
ASSIGNED_CATEGORY: YES

Then this compound:
Given CCCCCCCCCCCC1=C(O)C(=O)C=C(O)C1=O [Embelin] + NC(=O)Nc1cc(-c2cccc(F)c2)sc1C(=O)N[C@H]1CCCNC1 [AZD7762] (partner 0.2 µM) , is recorded relative viability strictly lower than 0.6?
NO
